Test system: PF-382
Experiment: selective drug sensitivity score (sDSS, relative to normal bone marrow) (sDSS (score)); higher = more potent and effective on the cell line relative to normal bone marrow cells;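 note: ALL cell lines in 384-well plates, five doses spanning 10,000-fold, each plate scaled between vehicle and 100 µmol/L benzalkonium chloride controls, sDSS an adapted area-under-curve metric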
Conditions: 72 h
// label = criterion met if selective drug sensitivity score is not less than 7, otherwise criterion not met

Query: Reported selective drug sensitivity score at or above 7? O=C(Nc1cc(Cl)cc2c1[nH]c1cnccc12)c1cccnc1 [PS-1145] (top concentration 25000 nM)
Result: criterion not met

Query: Reported selective drug sensitivity score at or above 7? CN(C(=O)c1ccc(F)cc1C(F)(F)F)C1CCN(c2nnc(-c3ccnn3C)c3ccccc23)CC1 [Taladegib] (top concentration 10000 nM)
Result: criterion not met

Query: Reported selective drug sensitivity score at or above 7? COc1cc([C@@H]2c3cc4c(cc3[C@@H](O[C@@H]3O[C@@H]5CO[C@@H](C)O[C@H]5[C@H](O)[C@H]3O)[C@H]3COC(=O)[C@H]23)OCO4)cc(OC)c1O [Etoposide] (top concentration 10000 nM)
Result: criterion met

Query: Reported selective drug sensitivity score at or above 7? CNC(=O)c1ccc(N2C(=S)N(c3cnc(C#N)c(C(F)(F)F)c3)C(=O)C23CCC3)cc1F [Apalutamide] (top concentration 10000 nM)
Result: criterion not met

Query: Reported selective drug sensitivity score at or above 7? CCCCCCCCc1ccc(CCC(N)(CO)CO)cc1 [Fingolimod] (top concentration 10000 nM)
Result: criterion not met

---

Recorded selective drug sensitivity score for the following compounds
Test system: PEER
Assay: selective drug sensitivity score (sDSS, relative to normal bone marrow) (sDSS (score)); higher = more potent and effective on the cell line relative to normal bone marrow cells
Settings: 72 h
API doc: respond with a numeric literal and nothing else, no unit.

Some solved entries appear below for comparison.
{"COMPOUND": "O=C1CCc2c(Oc3ccc4c(c3)[C@@H]3[C@H](O4)[C@H]3c3nc4cc(C(F)(F)F)ccc4[nH]3)ccnc2N1 [Lifirafenib (BGB-283)] (top concentration 10000 nM)", "REPORTED_ENDPOINT": "selective drug sensitivity score", "MEASURED_NUMBER": 10.7}
{"COMPOUND": "CCS(=O)(=O)N1CC(CC#N)(n2cc(-c3ncnc4[nH]ccc34)cn2)C1 [Baricitinib] (top concentration 2500 nM)", "REPORTED_ENDPOINT": "selective drug sensitivity score", "MEASURED_NUMBER": 0.96}
{"COMPOUND": "Cc1nc(NC(=O)N2CCC[C@H]2C(N)=O)sc1-c1ccnc(C(C)(C)C(F)(F)F)c1 [Alpelisib] (top concentration 2500 nM)", "REPORTED_ENDPOINT": "selective drug sensitivity score", "MEASURED_NUMBER": -0.42}
{"COMPOUND": "CN[C@@H](C)C(=O)N[C@H](C(=O)N1CCC[C@H]1c1nc(C(=O)c2ccc(F)cc2)cs1)C1CCCCC1 [NVP-LCL161] (top concentration 25000 nM)", "REPORTED_ENDPOINT": "selective drug sensitivity score", "MEASURED_NUMBER": -2.72}
{"COMPOUND": "COc1cc(Nc2ncc3c(n2)-c2ccc(Cl)cc2C(c2c(F)cccc2OC)=NC3)ccc1C(=O)O [Alisertib] (top concentration 10000 nM)", "REPORTED_ENDPOINT": "selective drug sensitivity score", "MEASURED_NUMBER": 26.6}

Now look at this one.
Query: Fill in the blank: the reported selective drug sensitivity score of CNC(=O)[C@@H](NC(=O)[C@H](CC(C)C)[C@H](O)C(=O)NO)C(C)(C)C [Marimastat] (top concentration 10000 nM) is ____.
Result: 1.42

---

Recorded selective drug sensitivity score for the following molecules
Test system: SUP-B15
Experiment: selective drug sensitivity score (sDSS, relative to normal bone marrow) (sDSS (score)); higher = more potent and effective on the cell line relative to normal bone marrow cells
Conditions: 72 h
API doc: respond with a numeric literal and nothing else, no unit.

Some solved entries appear below for comparison.
{"MOLECULE": "COc1c(C)cnc(Cn2cnc3c(Cl)nc(N)nc32)c1C [BIIB021] (top concentration 10000 nM)", "MEASURED_NUMBER": 4.48}
{"MOLECULE": "CCN(CCO)CCCOc1ccc2c(Nc3cc(CC(=O)Nc4cccc(F)c4)[nH]n3)ncnc2c1 [AZD1152-HQPA] (top concentration 1000 nM)", "MEASURED_NUMBER": 22.2}
{"MOLECULE": "CC(C)[C@H]1C(=O)N[C@@H](CCCNC(=N)N)C(=O)NCC(=O)N[C@@H](CC(=O)O)C(=O)N[C@H](Cc2ccccc2)C(=O)N1C [Cilengitide] (top concentration 10000 nM)", "MEASURED_NUMBER": 0}
{"MOLECULE": "O=C(/C=C\\n1cnc(-c2cc(C(F)(F)F)cc(C(F)(F)F)c2)n1)NNc1cnccn1 [Selinexor] (top concentration 10000 nM)", "MEASURED_NUMBER": 16.3}
{"MOLECULE": "C[C@H]1C=C2C(=O)O[C@H]3CC[C@@H](C1)[C@@]23O [Galiellalactone] (top concentration 25000 nM)", "MEASURED_NUMBER": 3.46}

Query: Fill in the blank: the reported selective drug sensitivity score of C[C@@H]1CN(C(=O)c2ccc(NC(=O)c3cc(O[C@H](C)c4c(Cl)ccc(F)c4Cl)c(N)nn3)cc2)C[C@H](C)N1 [Ensartinib] (top concentration 1000 nM) is ____.
Result: 3.86

---

Recorded selective drug sensitivity score for the following molecules
System: KARPAS-45
Test: selective drug sensitivity score (sDSS, relative to normal bone marrow) (sDSS (score)); higher = more potent and effective on the cell line relative to normal bone marrow cells
Conditions: 72 h
API doc: respond with a numeric literal and nothing else, no unit.

Some solved entries appear below for comparison.
{"MOLECULE": "COc1cc2c(NC3CCN(C(C)C)CC3)nc(C3CCCCC3)nc2cc1OCCCN1CCCC1 [UNC0638] (top concentration 10000 nM)", "selective drug sensitivity score": 2.36}
{"MOLECULE": "COc1ccc(COc2cc3oc(=O)c4cc(C(C)O)ccc4c3cc2OC)cc1 (stereo unspecified) [Palomid-529] (top concentration 10000 nM)", "selective drug sensitivity score": 2.76}
{"MOLECULE": "COC12C(COC(N)=O)C3=C(C(=O)C(C)=C(N)C3=O)N1CC1NC12 (stereo in doubt) [Mitomycin_C] (top concentration 10000 nM)", "selective drug sensitivity score": -2.86}

Query: Fill in the blank: the reported selective drug sensitivity score of Cn1cc(CNCC2CCN(c3ncc(C(=O)NO)cn3)CC2)c2ccccc21 [Quisinostat] (top concentration 1000 nM) is ____.
Result: 8.18

Query: Fill in the blank: the reported selective drug sensitivity score of CCCCCCCCCCCCCCCCOP(=O)([O-])OCC[N+](C)(C)C [Miltefosine] (top concentration 100000 nM) is ____.
Result: 2.26

Query: Fill in the blank: the reported selective drug sensitivity score of Cc1nc(=O)c2cc(CN(C)c3ccc(C(=O)N[C@@H](CCC(=O)O)C(=O)O)s3)ccc2[nH]1 [Raltitrexed] (top concentration 1000 nM) is ____.
Result: 9.52

---

Test system: MN-60
Test: selective drug sensitivity score (sDSS, relative to normal bone marrow) (sDSS (score)); higher = more potent and effective on the cell line relative to normal bone marrow cells
Settings: 72 h
REPORTED_ENDPOINT: selective drug sensitivity score
API doc: respond with a numeric literal and nothing else, no unit.

Query: Fill in the blank: the reported selective drug sensitivity score of CNC(=O)c1ccc(C)c(-n2c(C)cc(OCc3ccc(F)cc3F)c(Br)c2=O)c1 (top concentration 1000 nM) is ____.
Result: 0

Query: Fill in the blank: the reported selective drug sensitivity score of C[C@@H]1CCN(C(=O)CC#N)C[C@@H]1N(C)c1ncnc2[nH]ccc12 [Tofacitinib] (top concentration 5000 nM) is ____.
Result: -7.86

---

System: NALM-6
Test: selective drug sensitivity score (sDSS, relative to normal bone marrow) (sDSS (score)); higher = more potent and effective on the cell line relative to normal bone marrow cells
Conditions: 72 h
Recorded selective drug sensitivity score for the following compounds

Some solved entries appear below for comparison.
{"COMPOUND": "C[C@@H]1CN(C(=O)c2ccc(NC(=O)c3cc(O[C@H](C)c4c(Cl)ccc(F)c4Cl)c(N)nn3)cc2)C[C@H](C)N1 [Ensartinib] (top concentration 1000 nM)", "selective drug sensitivity score": -0.44}
{"COMPOUND": "CNC(=O)c1ccc(C)c(-n2c(C)cc(OCc3ccc(F)cc3F)c(Br)c2=O)c1 (top concentration 1000 nM)", "selective drug sensitivity score": 0.1}
{"COMPOUND": "C=CC(=O)Nc1cc(Nc2nccc(-c3cn(C)c4ccccc34)n2)c(OC)cc1N(C)CCN(C)C [Osimertinib] (top concentration 2500 nM)", "selective drug sensitivity score": -1.62}

Now look at this one.
Query: Fill in the blank: the reported selective drug sensitivity score of O=C(/C=C/c1cccc(S(=O)(=O)Nc2ccccc2)c1)NO [Belinostat] (top concentration 10000 nM) is ____.
Result: 7.4

The measurements presented in this section are drawn from the supplement of paper PMC8967900.
